Molecular target: HLA-A*02:01 (Homo sapiens, UniProt P04439, D140Y/D185E/D98H/E176V/E277Q/G131W/G231S/I119V/I121R/I166T/I218V/L300P/L318F/N151K/N90K/P208A/P217A/Q86G/Q94H/R138H/R169H/T345S)
Experiment: MHC binding assay (UV-ligand exchange, β2m ELISA, peptide exchange yield)
Details: binding of HLA-class I restricted peptides to HLA-A*02:01, UV-ligand exchange
valueType: Peptide exchange (MHC class I binding score, peptide exchange yield)

Use the examples below as a reference point.
> print(dat)
                                  substance     recordedresult
1  117 (ILPDGEDFLAV; listed as Homo sapiens) [compound 117]  “+++” (≥50 = +++)
2  277 (LLPPLESLATV; listed as Homo sapiens) [compound 277]   “++” (≥20% = ++)
3  278 (QLLDVVLTI; listed as Homo sapiens) [compound 278]   “++” (≥20% = ++)
4  498 (KLWTGGLDNTV; listed as Homo sapiens) [compound 498]  “+++” (≥50 = +++)
5  315 (YLQDVVEQA; listed as Homo sapiens) [compound 315]  “+++” (≥50 = +++)
6  92 (YLIPFTGIVGL; listed as Homo sapiens) [compound 92]   “++” (≥20% = ++)

List Peptide exchange (MHC class I binding score, peptide exchange yield) for every entry below, keeping the order given.
1. 618 (VLFDSESIGIYV; listed as Homo sapiens) [compound 618]
2. 155 (RVANLHFPSV; listed as Homo sapiens) [compound 155]
3. 352 (SLLELLHIYV; listed as Homo sapiens) [compound 352]

1: “+++” (≥50 = +++); 2: “+++” (≥50 = +++); 3: “+++” (≥50 = +++)

I'm hoping you can list Peptide exchange (MHC class I binding score, peptide exchange yield) for every substance here, please.
1. 50 (SLSELEALM; listed as Homo sapiens) [compound 50]
2. 84 (VTFGEKLLGV; listed as Homo sapiens) [compound 84]
3. 392 (ALLHPQGFEV; listed as Homo sapiens) [compound 392]
4. 604 (SILDRDDIFV; listed as Homo sapiens) [compound 604]
5. 440 (ALADGVTMQV; listed as Homo sapiens) [compound 440]

["“+++” (≥50 = +++)", "“++” (≥20% = ++)", "“++” (≥20% = ++)", "“+++” (≥50 = +++)", "“++” (≥20% = ++)"]

For every record below, what is its Peptide exchange (MHC class I binding score, peptide exchange yield)?
1. 28 (QLLDETSAITL; listed as Homo sapiens) [compound 28]
2. 283 (ALYIGDGYVIHLA; listed as Homo sapiens) [compound 283]
3. 198 (KTINKVPTV; listed as Homo sapiens) [compound 198]

1: “+++” (≥50 = +++); 2: “+++” (≥50 = +++); 3: “+++” (≥50 = +++)

* * *

Target: HLA-A*02:01 (Homo sapiens, UniProt P04439, D140Y/D185E/D98H/E176V/E277Q/G131W/G231S/I119V/I121R/I166T/I218V/L300P/L318F/N151K/N90K/P208A/P217A/Q86G/Q94H/R138H/R169H/T345S)
Assay: MHC binding assay (UV-ligand exchange, β2m ELISA, peptide exchange yield)
Settings: binding of HLA-class I restricted peptides to HLA-A*02:01, UV-ligand exchange
valueType: Peptide exchange (MHC class I binding score, peptide exchange yield)

> print(dat)
                                  substance     recordedresult
1  359 (YLLPESVDL; listed as Homo sapiens) [compound 359]  “+++” (≥50 = +++)
2  170 (RLQETLSAA; listed as Homo sapiens) [compound 170]  “+++” (≥50 = +++)
3  129 (GLLDGGVDILL; listed as Homo sapiens) [compound 129]  “+++” (≥50 = +++)
